# Tested on: Zea mays (ZEAMX)
# Assay type: in vivo
# condition.context: crop plant compatibility, 80 g/ha, effect vs untreated controls

compound | target.or.test.system | Post-emergence action against ZEAMX in % (%)
COc1cccnc1-n1nc(OCC(=O)O)c(Br)c1-c1ccc(F)nc1 | Zea mays (ZEAMX) | 0
COC(=O)C(C)NC(=O)[C@@H](C)Oc1nn(-c2ccccn2)c(-c2ccc(F)nc2)c1Cl (some centres unmarked) | Zea mays (ZEAMX) | 0
COC(=O)COc1nn(-c2ncccc2Cl)c(-c2ccc(F)nc2)c1Br | Zea mays (ZEAMX) | 0
Cc1ncccc1-n1nc(OCC(=O)OCc2ccccn2)c(Br)c1-c1cncc(F)c1 | Zea mays (ZEAMX) | 0
COC(=O)COc1nn(-c2ncccc2F)c(-c2cncc(F)c2)c1Br [Example I-16] | Zea mays (ZEAMX) | 20
Cc1ncccc1-n1nc(OCC(=O)OCC2CCCO2)c(Br)c1-c1cncc(F)c1 (centres unmarked) | Zea mays (ZEAMX) | 20
COC(=O)CCOC(=O)COc1nn(-c2ccccn2)c(-c2ccc(F)nc2)c1C1CC1(F)F (centres unmarked) [Example I-261] | Zea mays (ZEAMX) | 0
CCOC(=O)COc1nn(-c2ncccc2F)c(-c2ccc(F)nc2)c1F | Zea mays (ZEAMX) | 0

* * *

# Test system: Avena fatua (AVEFA)
# measurement.notes: Pre-emergence herbicidal action against AVEFA
# Assay type: in vivo
# condition.context: 320 g/ha, visual scoring after about 3 weeks vs untreated controls
Let's look at some compounds and their measured Pre-emergence action against AVEFA in %.
measured.quantity: Pre-emergence action against AVEFA in % (%)

compound | measured.quantity | reported.result
C[C@@H](Oc1nn(-c2ncccc2F)c(-c2ccc(F)nc2)c1C1CC1)C(=O)O | Pre-emergence action against AVEFA in % | 100
CCOC(=O)COc1nn(-c2ncccc2F)c(-c2cncc(F)c2)c1C1CC1 | Pre-emergence action against AVEFA in % | 90
O=C(O)COc1nn(-c2ccccn2)c(-c2ccc(F)nc2)c1C(F)(F)F | Pre-emergence action against AVEFA in % | 90
COC(=O)[C@@H](C)Oc1nn(-c2ncccc2F)c(-c2cncc(F)c2)c1Br | Pre-emergence action against AVEFA in % | 100
C[C@@H](Oc1nn(-c2ncccc2Cl)c(-c2ccc(F)nc2)c1Br)C(=O)O | Pre-emergence action against AVEFA in % | 100
COC(=O)CCOC(=O)[C@@H](C)Oc1nn(-c2ccccn2)c(-c2cncc(F)c2)c1Cl | Pre-emergence action against AVEFA in % | 90
CCOC(=O)[C@@H](C)Oc1nn(-c2ncccc2F)c(-c2ccc(F)nc2)c1C(F)(F)F | Pre-emergence action against AVEFA in % | 100
CCOC(=O)COc1nn(-c2ncccc2F)c(-c2ccc(F)nc2)c1Br [Example I-51] | Pre-emergence action against AVEFA in % | 90

* * *

# System: Abutilon theophrasti (ABUTH)
# measurement.notes: Post-emergence herbicidal action against ABUTH
# Assay type: in vivo
# condition.context: 320 g/ha, visual rating about 3 weeks after treatment vs untreated controls (100% = plants have died, 0% = like control plants)
measured.quantity: Post-emergence action against ABUTH in % (%)

compound | measured.quantity | u | reported.result
CCOC(=O)CSc1nn(-c2ccccn2)c(-c2cncc(F)c2)c1I | Post-emergence action against ABUTH in % | % | 80
COC(=O)[C@@H](C)Oc1nn(-c2nc(F)ccc2F)c(-c2ccc(F)nc2)c1Br | Post-emergence action against ABUTH in % | % | 80
O=C(COc1nn(-c2ncccc2F)c(-c2ccc(F)nc2)c1C1CC1)OCC1CCCO1 (stereo not shown) | Post-emergence action against ABUTH in % | % | 80
CCOC(=O)[C@@H](C)Oc1nn(-c2nc(F)ccc2F)c(-c2ccc(F)nc2)c1Br | Post-emergence action against ABUTH in % | % | 80
COC(=O)[C@@H](C)Oc1nn(-c2ncccc2F)c(-c2ccc(F)nc2)c1C(F)(F)F | Post-emergence action against ABUTH in % | % | 90
COCCOC(=O)COc1nn(-c2ncccc2C(F)(F)F)c(-c2ccc(F)nc2)c1Br | Post-emergence action against ABUTH in % | % | 80
C[C@@H](Oc1nn(-c2ncccc2F)c(-c2ccc(F)nc2)c1C1CC1)C(=O)O | Post-emergence action against ABUTH in % | % | 90
COC(=O)[C@H](C)COC(=O)COc1nn(-c2ccccn2)c(-c2cncc(F)c2)c1Cl | Post-emergence action against ABUTH in % | % | 80
COCCOC(=O)COc1nn(-c2ccccn2)c(-c2ccc(F)nc2)c1Br | Post-emergence action against ABUTH in % | % | 90
COC(=O)CNC(=O)[C@@H](C)Oc1nn(-c2ccccn2)c(-c2ccc(F)nc2)c1Cl | Post-emergence action against ABUTH in % | % | 90
CCOC(=O)COc1nn(-c2nc(F)ccc2F)c(-c2ccc(F)nc2)c1C1CC1 | Post-emergence action against ABUTH in % | % | 80
COC(=O)C(C)NC(=O)[C@@H](C)Oc1nn(-c2ccccn2)c(-c2cncc(F)c2)c1Br (stereo partly shown) | Post-emergence action against ABUTH in % | % | 80
COC(=O)C(C)NC(=O)[C@@H](C)Oc1nn(-c2ccccn2)c(-c2ccc(F)nc2)c1Cl (stereo partly shown) | Post-emergence action against ABUTH in % | % | 80
COC(=O)CCOC(=O)COc1nn(-c2ccccn2)c(-c2ccc(F)nc2)c1F | Post-emergence action against ABUTH in % | % | 80
CCOC(=O)COc1nn(-c2nc(F)ccc2F)c(-c2ccc(F)nc2)c1Br | Post-emergence action against ABUTH in % | % | 80
Cc1cccc(-n2nc(OCC(=O)O)c(Br)c2-c2ccc(F)nc2)n1 | Post-emergence action against ABUTH in % | % | 80

* * *

Let's look at some compounds and their measured Pre-emergence action against AMARE in %.
# System: Amaranthus retroflexus (AMARE)
# measurement.notes: Pre-emergence herbicidal action against AMARE
# Format: in vivo
# condition.context: 320 g/ha, visual scoring after about 3 weeks vs untreated controls

compound | target.or.test.system | Pre-emergence action against AMARE in % [%]
O=C(O)COc1nn(-c2nc(F)ccc2F)c(-c2ccc(F)nc2)c1Br | Amaranthus retroflexus (AMARE) | 100
CCOC(=O)COc1nn(-c2ncccc2F)c(-c2ccc(F)nc2)c1C(F)(F)F | Amaranthus retroflexus (AMARE) | 100
O=C(O)COc1nn(-c2nc(F)ccc2F)c(-c2cncc(F)c2)c1C1CC1 | Amaranthus retroflexus (AMARE) | 100
COC(=O)[C@@H](C)Oc1nn(-c2ncccc2Cl)c(-c2ccc(F)nc2)c1Br | Amaranthus retroflexus (AMARE) | 100
C[C@@H](Oc1nn(-c2ccccn2)c(-c2ccc(Cl)nc2)c1Cl)C(=O)O | Amaranthus retroflexus (AMARE) | 80
COC(=O)COc1nn(-c2ncccc2C(F)(F)F)c(-c2cncc(F)c2)c1Br | Amaranthus retroflexus (AMARE) | 90
COC(=O)[C@@H](C)Oc1nn(-c2ccnc(Cl)c2)c(-c2ccc(F)nc2)c1Br | Amaranthus retroflexus (AMARE) | 100
COC(=O)C(C)NC(=O)[C@@H](C)Oc1nn(-c2ccccn2)c(-c2cncc(F)c2)c1Br (stereo partly shown) | Amaranthus retroflexus (AMARE) | 100
CCOC(=O)C(C)Oc1nn(-c2ccccn2)c(-c2ccc(F)nc2)c1C(F)(F)F (stereo not shown) | Amaranthus retroflexus (AMARE) | 100
CCOC(=O)COc1nn(-c2nc(F)ccc2F)c(-c2ccc(F)nc2)c1C1CC1 | Amaranthus retroflexus (AMARE) | 90
O=C(O)COc1nn(-c2ccccn2)c(-c2ccc(F)nc2)c1C(F)(F)F | Amaranthus retroflexus (AMARE) | 90
CCOC(=O)COc1nn(-c2ccccn2)c(-c2ccc(F)nc2)c1I | Amaranthus retroflexus (AMARE) | 100
CCOC(=O)COc1nn(-c2nc(F)ccc2F)c(-c2ccc(F)nc2)c1Br | Amaranthus retroflexus (AMARE) | 100
O=C(O)COc1nn(-c2ccccn2)c(-c2ccc(F)nc2)c1I | Amaranthus retroflexus (AMARE) | 90
COC(=O)[C@@H](C)Oc1nn(-c2ncccc2F)c(-c2ccc(F)nc2)c1I | Amaranthus retroflexus (AMARE) | 100
O=C(O)COc1nn(-c2ccccn2)c(-c2ccc(Cl)nc2)c1Br | Amaranthus retroflexus (AMARE) | 90
COC(=O)[C@@H](C)Oc1nn(-c2nc(F)ccc2F)c(-c2cncc(F)c2)c1Cl | Amaranthus retroflexus (AMARE) | 100
CCOC(=O)COc1nn(-c2ncccc2F)c(-c2ccc(F)nc2)c1Br | Amaranthus retroflexus (AMARE) | 100
COC(=O)COc1nn(-c2ncccc2F)c(-c2cncc(F)c2)c1C1CC1 | Amaranthus retroflexus (AMARE) | 100
COC(=O)[C@@H](C)Oc1nn(-c2nc(F)ccc2F)c(-c2ccc(F)nc2)c1Br | Amaranthus retroflexus (AMARE) | 100
COC(=O)CCOC(=O)COc1nn(-c2ncccc2C(F)(F)F)c(-c2cncc(F)c2)c1Br | Amaranthus retroflexus (AMARE) | 80
CCOC(=O)COc1nn(-c2ccccn2)c(-c2ccnc(F)c2)c1Br | Amaranthus retroflexus (AMARE) | 90
CCOC(=O)CNC(=O)COc1nn(-c2ncccc2F)c(-c2ccc(OC)nc2)c1Br | Amaranthus retroflexus (AMARE) | 100
CCOC(=O)COc1nn(-c2ccccn2)c(-c2cncc(F)c2)c1Cl | Amaranthus retroflexus (AMARE) | 90
O=C(O)COc1nn(-c2nc(F)ccc2F)c(-c2cncc(F)c2)c1Cl | Amaranthus retroflexus (AMARE) | 90
COC(=O)[C@@H](C)COC(=O)COc1nn(-c2ccccn2)c(-c2cncc(F)c2)c1Br | Amaranthus retroflexus (AMARE) | 100
COCCOC(=O)[C@@H](C)Oc1nn(-c2ncccc2F)c(-c2ccc(F)nc2)c1Br | Amaranthus retroflexus (AMARE) | 100
CCOC(=O)[C@@H](C)Oc1nn(-c2ccccn2)c(-c2cncc(F)c2)c1Cl | Amaranthus retroflexus (AMARE) | 100
CCOC(=O)[C@@H](C)Oc1nn(-c2ccccn2)c(-c2ccc(F)nc2)c1Br | Amaranthus retroflexus (AMARE) | 100
COC(=O)COc1nn(-c2ncccc2F)c(-c2cncc(F)c2)c1Br | Amaranthus retroflexus (AMARE) | 100
COC(=O)CCOC(=O)COc1nn(-c2ncccc2C(F)(F)F)c(-c2ccc(F)nc2)c1Br | Amaranthus retroflexus (AMARE) | 90
O=C(O)COc1nn(-c2ncccc2C(F)(F)F)c(-c2cncc(F)c2)c1Br | Amaranthus retroflexus (AMARE) | 80
CCOC(=O)COc1nn(-c2ncccc2C(F)(F)F)c(-c2ccc(F)nc2)c1Cl | Amaranthus retroflexus (AMARE) | 100
O=C(O)COc1nn(-c2ncccc2Cl)c(-c2ccc(F)nc2)c1Br | Amaranthus retroflexus (AMARE) | 100
